SYSTEM: CCK receptor (pancreas) (Rattus norvegicus)
Construct: The whole pancreas was dissected free of fat tissue and was homogenized
Sequence (P30551 whole entry): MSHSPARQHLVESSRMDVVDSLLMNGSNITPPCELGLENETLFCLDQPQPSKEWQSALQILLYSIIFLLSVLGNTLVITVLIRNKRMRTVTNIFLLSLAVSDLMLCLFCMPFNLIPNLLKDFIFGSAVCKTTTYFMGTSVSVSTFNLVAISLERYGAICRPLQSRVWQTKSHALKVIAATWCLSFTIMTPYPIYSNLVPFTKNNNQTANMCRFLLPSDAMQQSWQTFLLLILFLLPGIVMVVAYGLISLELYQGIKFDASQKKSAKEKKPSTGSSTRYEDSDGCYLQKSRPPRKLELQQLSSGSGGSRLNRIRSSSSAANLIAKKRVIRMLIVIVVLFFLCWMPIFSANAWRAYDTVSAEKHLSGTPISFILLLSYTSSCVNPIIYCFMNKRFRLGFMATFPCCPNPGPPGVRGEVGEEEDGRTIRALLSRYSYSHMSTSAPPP
ASSAY_METHOD_TEXT: CCK Receptor Binding (Pancreas), 125I-CCK-33
TEST_CONTEXT: rat pancreas membranes; 125I-CCK-33; 37° C., 30 minutes
Reported IC50 is given for each of the following compounds.
Kindly provide the numeric value in nM only, without the unit symbol.

[
  {
    "COMPOUND": "O=C(Cc1c[nH]c2ccccc12)Nc1cc2c(cn1)[nH]c1ccccc12",
    "SYSTEM": "CCK receptor (pancreas) (Rattus norvegicus)",
    "UNIT_TAG": "nM",
    "MEASURED_RESULT": 24
  },
  {
    "COMPOUND": "Cn1c(C(=O)Nc2cc3c(cn2)[nH]c2ccccc23)cc2ccccc21",
    "SYSTEM": "CCK receptor (pancreas) (Rattus norvegicus)",
    "UNIT_TAG": "nM",
    "MEASURED_RESULT": 710
  },
  {
    "COMPOUND": "O=C(Cc1ccccc1)Nc1cc2c(cn1)[nH]c1ccccc12",
    "SYSTEM": "CCK receptor (pancreas) (Rattus norvegicus)",
    "UNIT_TAG": "nM",
    "MEASURED_RESULT": 40
  }
]

Qu. State the recorded IC50 for this entry: O=C(CCc1ccccc1)Nc1cc2c(cn1)[nH]c1ccccc12
Ans. 330

Qu. State the recorded IC50 for this entry: O=C(Nc1cc2c(cn1)[nH]c1ccccc12)c1ccccc1 [Example 8, N-9H-Pyrido(3,4-b)indol-3-yl benzamide]
Ans. 7100

Qu. State the recorded IC50 for this entry: O=C(Nc1cc2c(cn1)[nH]c1ccccc12)c1cccs1
Ans. 9800

Qu. State the recorded IC50 for this entry: O=C(Nc1ccc(Cl)cc1)Nc1cc2c(cn1)[nH]c1ccccc12
Ans. 85

Qu. State the recorded IC50 for this entry: O=C(Nc1cc2c(cn1)[nH]c1ccccc12)c1ccc(Cl)cc1
Ans. 3500
